Biological target: SMARCA2 (Homo sapiens)
Construct: endogenous in cells
Test: SMARCA2 Cellular Degradation Assay (Western blot analysis on Jess platform)
Type: cell-based
Conditions: cellular degradation
The entries below come with measured Dmax values attached.
Dear colleague, please return just the value in %, with no unit written.

Answered cases to consult:
INSERT INTO measurements (compound, recorded_measurement) VALUES
  ('CN(CC1(c2ccccc2)CCN(c2cnnc(-c3ccccc3O)c2)CC1)C(=O)C1CCN(CCC2CCN(c3ccc([C@H]4CCC(=O)NC4=O)cc3)CC2)C2(CCC2)C1 (mixture of isomers)', 83),
  ('O=C1CC[C@@H](c2ccc(N3CCC(CN4CC5(C4)CN(C(=O)C4(c6ccccc6)CCN(c6cnnc(-c7ccccc7O)c6)CC4)C5)CC3)cc2)C(=O)N1', 75.1),
  ('O=C1CCC(c2ccc(N3C[C@H]4CN(CC(=O)N5CCC6(CC5)CN(C(=O)C5(c7ccccc7)CCN(c7cnnc(-c8ccccc8O)c7)CC5)C6)C[C@@H]4C3)cc2)C(=O)N1 (mixture of isomers)', 73.9),
  ('C[C@H]1C[C@H](NC(=O)C2(c3ccccc3)CCN(c3cnnc(-c4ccccc4O)c3)CC2)CCN1C(=O)CN1CCC(c2ccc([C@H]3CCC(=O)NC3=O)cc2)CC1 (racemic)', 83.5);

The record that follows has no Dmax shown yet.
Quote Dmax with test system SMARCA2 (Homo sapiens) for O=C1CCC(Nc2ccc(C3CCN(CCNC(=O)C4(c5ccccc5)CCN(c5cnnc(-c6ccccc6O)c5)CC4)CC3)cc2)C(=O)N1 (racemic) 59.2

---

Molecular target: SMARCA2 (Homo sapiens, UniProt P51531)
Construct: endogenous in cells
Sequence (P51531 whole entry, species assumed): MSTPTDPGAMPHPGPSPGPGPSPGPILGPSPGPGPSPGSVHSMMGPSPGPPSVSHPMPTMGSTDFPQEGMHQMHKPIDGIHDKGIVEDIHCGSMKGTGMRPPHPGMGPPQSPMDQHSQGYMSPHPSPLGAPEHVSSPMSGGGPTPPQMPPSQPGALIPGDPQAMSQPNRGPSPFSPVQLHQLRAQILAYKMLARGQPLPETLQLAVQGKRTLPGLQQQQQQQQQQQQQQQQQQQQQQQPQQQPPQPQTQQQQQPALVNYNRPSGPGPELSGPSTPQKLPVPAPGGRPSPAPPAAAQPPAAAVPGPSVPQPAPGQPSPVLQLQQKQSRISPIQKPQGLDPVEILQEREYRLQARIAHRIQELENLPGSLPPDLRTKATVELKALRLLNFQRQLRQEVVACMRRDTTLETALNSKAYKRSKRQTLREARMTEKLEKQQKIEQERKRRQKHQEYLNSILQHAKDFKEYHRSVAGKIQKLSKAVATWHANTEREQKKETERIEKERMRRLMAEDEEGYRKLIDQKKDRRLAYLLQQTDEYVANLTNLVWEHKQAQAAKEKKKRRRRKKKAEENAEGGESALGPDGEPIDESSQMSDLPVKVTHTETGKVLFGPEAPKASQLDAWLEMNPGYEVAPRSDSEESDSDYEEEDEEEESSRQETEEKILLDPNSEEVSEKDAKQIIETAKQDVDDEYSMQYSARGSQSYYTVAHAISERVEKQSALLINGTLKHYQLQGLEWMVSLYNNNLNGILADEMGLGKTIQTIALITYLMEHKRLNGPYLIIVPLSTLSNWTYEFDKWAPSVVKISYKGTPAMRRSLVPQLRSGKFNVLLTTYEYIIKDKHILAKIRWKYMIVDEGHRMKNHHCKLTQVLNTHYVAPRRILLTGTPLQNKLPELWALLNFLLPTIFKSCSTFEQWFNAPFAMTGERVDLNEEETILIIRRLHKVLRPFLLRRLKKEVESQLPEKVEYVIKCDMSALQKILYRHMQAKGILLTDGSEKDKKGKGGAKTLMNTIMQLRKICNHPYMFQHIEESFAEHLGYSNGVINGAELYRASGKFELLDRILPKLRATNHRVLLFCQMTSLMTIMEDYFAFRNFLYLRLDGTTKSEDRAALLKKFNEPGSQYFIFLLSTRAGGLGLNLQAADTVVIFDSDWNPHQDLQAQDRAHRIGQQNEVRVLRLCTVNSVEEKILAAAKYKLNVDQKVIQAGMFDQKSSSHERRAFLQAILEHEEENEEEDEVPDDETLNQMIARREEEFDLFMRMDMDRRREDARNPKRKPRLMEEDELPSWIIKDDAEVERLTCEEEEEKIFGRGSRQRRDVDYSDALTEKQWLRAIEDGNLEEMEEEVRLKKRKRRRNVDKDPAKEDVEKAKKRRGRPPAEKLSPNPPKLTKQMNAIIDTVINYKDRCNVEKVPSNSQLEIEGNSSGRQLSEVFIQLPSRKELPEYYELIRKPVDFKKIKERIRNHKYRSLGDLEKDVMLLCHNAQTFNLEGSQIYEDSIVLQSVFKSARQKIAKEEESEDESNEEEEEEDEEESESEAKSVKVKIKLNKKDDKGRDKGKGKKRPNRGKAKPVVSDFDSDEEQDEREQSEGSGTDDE
Assay: SMARCA2 Cellular Degradation Assay (Western blot analysis on Jess platform)
Assay type: cell-based
Conditions: cellular degradation
test_readout: DC50 (nM)
Dear colleague, please return just the value in nM, with no unit written.

Answered cases to consult:
INSERT INTO measurements (compound, recorded_measurement) VALUES
  ('O=C1CCC(c2ccc(C3CCN(CC(=O)N4CC5(C4)CN(C(=O)C4(Oc6ccccc6Cl)CCN(c6cnnc(-c7ccccc7O)c6)CC4)C5)CC3)cc2)C(=O)N1 (racemic) [Example 113]', 9.76),
  ('CN(C(=O)C1(OC2CC2)CCN(c2cnnc(-c3ccccc3O)c2)CC1)C1CCN(CC2CCN(c3ccc([C@H]4CCC(=O)NC4=O)cc3)CC2)CC1 [Example 114]', 9.94),
  ('O=C1CC[C@@H](c2cccc(N3CCC(CN4CCC5(CC4)CN(C(=O)C4(c6ccccc6)CCN(c6cnnc(-c7ccccc7O)c6)CC4)C5)CC3)c2)C(=O)N1 (racemic) [Example 101]', 19.5),
  ('Cc1ccn(C2(C(=O)NC3CCN(CC4CCN(c5ccc([C@H]6CCC(=O)NC6=O)cc5)CC4)C4(CCC4)C3)CCN(c3cnnc(-c4ccccc4O)c3)CC2)n1 (some centres unmarked) [Example 162]', 2.62),
  ('CN(C(=O)C1(c2ccccc2)CCN(c2cnnc(-c3ccccc3O)c2)CC1)C1CCN(CCC2CCN(c3ccc(C4CCC(=O)NC4=O)cn3)CC2)CC1 (racemic) [Example 69]', 6.23);

Retrieve DC50 measured for Cc1ccnn1C1(C(=O)N(C)C2CCN(C3COC4(CCN(c5ccc([C@H]6CCC(=O)NC6=O)cc5)CC4)C3)CC2)CCN(c2cnnc(-c3ccccc3O)c2)CC1 (mixture of isomers) [Example 63] and print it. 8.77

Retrieve DC50 measured for Cc1cccc(C2(C(=O)N3CC4(CN(CC5CCN(c6ccc(C7CCC(=O)NC7=O)cc6)CC5)C4)C3)CCN(c3cnnc(-c4ccccc4O)c3)CC2)c1 (racemic) [Example 43] and print it. 11.9

Retrieve DC50 measured for O=C1CC[C@H](c2ccc(C3CCN(CC(=O)N4CCC(S(=O)(=O)NCC5(c6ccccc6)CCN(c6cnnc(-c7ccccc7O)c6)CC5)CC4)CC3)cc2)C(=O)N1 (racemic) [Example 109] and print it. 76.9

Retrieve DC50 measured for O=C1CCC(c2ccc(N3CCC4(CC3)CC(CN3CC5(CCN(C(=O)C6(c7ccccc7)CCN(c7cnnc(-c8ccccc8O)c7)CC6)CC5)C3)C4)cc2)C(=O)N1 (racemic) [Example 137] and print it. 44.4

Retrieve DC50 measured for CN(C(=O)C1(c2ccccc2)CCN(c2cnnc(-c3ccccc3O)c2)CC1)C1CCN(CCC2CCN(c3ccc(C4CCC(=O)NC4=O)c(F)c3)CC2)CC1 (racemic) [Example 151] and print it. 3.57

Retrieve DC50 measured for CC1(CCN2CC3(C2)CN(C(=O)C2(c4ccccc4)CCN(c4cnnc(-c5ccccc5O)c4)CC2)C3)CCN(c2ccc(C3CCC(=O)NC3=O)cc2)CC1 (racemic) [Example 131] and print it. 29.4
